Tested on: E. coli BW25113
experimentDescription: MIC broth microdilution
Type: cell-based, Escherichia coli
experimentalContext: Mueller-Hinton broth + 0.9% NaCl; 24 h 37 °C; median of ≥3 experiments
Ends that are not written are not given here.
Reported Minimum inhibitory concentration MHB + 0.9% NaCl values are given for each entry in this list.
readoutKind: Minimum inhibitory concentration MHB + 0.9% NaCl

1. PHRPRPRPRPWFPPRFP [Rum-1[13-29]] | > 256 µM
2. RPRPRPRPWFPPRFP [Rum-1[15-29]] | > 256 µM
3. RARRPRPPKPRPPHRP [Rum-1[1-16]] | > 256 µM
4. RPPKPRPPHRPRPRPRPWFPPRFP [Rum-1[6-29]] | 16 to 32 µM
